# assay summary: IVIVE: steady-state concentration (Css), generic HTTK model
# Parameters: species or system human
# assay context: Assuming 1 mg/kg/day dose rate; BW 70 kg
Css (mg/L) strictly under 10 mg/L means satisfied; at 10 mg/L or over means not satisfied.

Say whether its Css (mg/L) is strictly beneath 10 mg/L. Entry: O=C(O)C(F)(F)C(F)(F)C(F)(F)C(F)(F)C(F)(F)C(F)(F)C(F)(F)C(F)(F)F
not satisfied

Say whether its Css (mg/L) is strictly beneath 10 mg/L. Entry: O=C(O)C(F)(F)C(F)(F)C(F)(F)C(F)(F)C(F)(F)C(F)(F)C(F)(F)C(F)(F)C(F)(F)C(F)(F)C(F)(F)C(F)(F)F
satisfied

Say whether its Css (mg/L) is strictly beneath 10 mg/L. Entry: O=C(O)C(F)(F)C(F)(F)OC(F)(F)F
satisfied

Say whether its Css (mg/L) is strictly beneath 10 mg/L. Entry: O=C(O)C(F)(F)C(F)(F)C(F)(F)OC(F)(C(F)(F)F)C(F)(F)F
not satisfied

Say whether its Css (mg/L) is strictly beneath 10 mg/L. Entry: CCNS(=O)(=O)C(F)(F)C(F)(F)C(F)(F)C(F)(F)C(F)(F)C(F)(F)C(F)(F)C(F)(F)F
satisfied

Say whether its Css (mg/L) is strictly beneath 10 mg/L. Entry: O=S(=O)(OCC(F)(F)F)C(F)(F)C(F)(F)C(F)(F)C(F)(F)F
not satisfied

Say whether its Css (mg/L) is strictly beneath 10 mg/L. Entry: O=C(O)CCC(F)(F)C(F)(F)C(F)(F)C(F)(F)C(F)(F)F
satisfied

Say whether its Css (mg/L) is strictly beneath 10 mg/L. Entry: O=S(=O)(Cl)C(F)(F)C(F)(F)C(F)(F)C(F)(F)C(F)(F)C(F)(F)C(F)(F)C(F)(F)F
not satisfied

###

# Tested on: pooled primary human hepatocyte suspensions
# assay summary: Hepatic clearance assay (substrate depletion, LC-MS)
# assay context: CLint value carried into HTTK/IVIVE; in µL/min/10^6 cells
# Protocol: The rate of hepatic clearance was determined as previously described for a set of PFAS [11]. […] The PFAS analyzed in each lab can be found in the Supplementary Materials. […] PFAS stock solutions prepared in DMSO were added to prewarmed William’s E medium to make a 2X working stock solution (2 µM). […] The primary human hepatocytes were then resuspended in pre-warmed complete Williams E medium to achieve a cell density of ~1.0 × 10^6 viable cells/mL as determined by Trypan Blue exclusion. […]
experimental readout: CLint for HTTK
API doc: respond with a numeric literal and nothing else, no unit.

// lookup CLint for HTTK for O=C(O)C(F)(F)C(F)(F)OC(F)(F)F
0

// lookup CLint for HTTK for O=C(Cl)C(F)(F)C(F)(F)C(F)(F)C(F)(F)C(F)(F)C(F)(F)F [Perfluoroheptanoyl chloride (PFHpA-Cl)]
0

// lookup CLint for HTTK for O=C(O)C(F)(F)C(F)(F)C(F)(F)C(F)(F)C(F)(F)C(F)(F)C(F)(F)C(F)(F)C(F)(F)C(F)F
0

// lookup CLint for HTTK for O=C(O)C(F)(F)C(F)(F)C(F)(F)C(F)(F)C(F)(F)C(F)(F)C(F)(F)C(F)(F)C(F)(F)C(F)(F)C(F)(F)C(F)(F)C(F)(F)F [Perfluorotetradecanoic acid (PFTeA)]
0

// lookup CLint for HTTK for O=C([O-])C(F)(F)C(F)(F)C(F)(F)C(F)(F)C(F)(F)C(F)(F)C(F)(F)F.[K+] [Potassium perfluorooctanoate (KPFOA)]
0

// lookup CLint for HTTK for O=S(=O)(O)CCC(F)(F)C(F)(F)C(F)(F)C(F)(F)C(F)(F)C(F)(F)F
1.4

// lookup CLint for HTTK for O=S(=O)([O-])C(F)(F)C(F)(F)C(F)(F)C(F)(F)C(F)(F)C(F)(F)F.[K+]
0

// lookup CLint for HTTK for N.O=C(O)C(F)(F)C(F)(F)C(F)(F)C(F)(F)C(F)(F)C(F)(F)C(F)(F)F [Ammonium perfluorooctanoate (NH4PFOA)]
2.06
